These entries and their values trace back to ChEMBL document CHEMBL5308504.

# Tested target: Fibroblast growth factor receptor 3 (Homo sapiens)
# Recorded conditions: Compound concentration 20.0 uM, Protein concentration 2.0 uM, Result type QC Liability
# Description: Thermal Shift Assay. Domain: start/stop: P449-E759
Criterion: ΔTm meeting or surpassing 1 °C. Met: T. Not met: F.

NC(=O)c1sc2nc(N3CCC(NC[C@H](O)c4ccccn4)CC3)cc(C(F)(F)F)c2c1N ... T
CC1(C)CCC(CN2CCN(c3ccc(C(=O)NS(=O)(=O)c4ccc(NCC5CCOCC5)c([N+](=O)[O-])c4)c(Oc4cnc5[nH]ccc5c4)c3)CC2)=C(c2ccc(Cl)cc2)C1 ... T
Cc1cn([C@@H](C)CC#N)c(=O)c2cc(Cn3nc(C(F)F)cc3Cl)nn12 ... F
Clc1cccc(Nc2nccc(NCCCN3CCOCC3)n2)c1 ... T
COc1ccc(C(F)(F)F)cc1NC(=O)Nc1ccc(Oc2cc(C)nc(N)n2)c2ccccc12 ... T

Now, please, on to the next compound.
**Query** Hi team, for CCN1C(=O)/C(=C(\NC2CCN(C)CC2)c2ccc3c(c2)OCO3)c2cc(C(C)=O)ccc21 , is the recorded ΔTm at or above 1 °C?
**Result** T

====

# Tested target: Peregrin (Homo sapiens) (UniProt P55201)
# Recorded conditions: Compound concentration 20.0 uM, Protein concentration 2.0 uM, Result type QC Liability
Listing of recorded ΔTm by entry.
Hi! Could you send only the number? It should be in °C, unit omitted.

Some solved entries appear below for comparison.
O=C(O)c1cc2cc(Cc3cccnc3)ccc2o1 ... -2.16
COc1c(OCCCN2CCOCC2)ccc2c1N=C(NC(=O)c1cnc(N)nc1)N1CCN=C21 ... -0.93
Nc1ncnc2c1c(COc1cccc(Cl)c1)nn2C1CCOCC1 ... -1.86
Cn1cncc1-c1cn(-c2cccc(C(=O)Nc3cccc(C(F)(F)F)c3)c2)nn1 ... -1.49
COC(=O)Nc1nc2c(s1)-c1c(c(-c3cccnc3)nn1-c1ccc(C3(N(C)C)CC3)cc1)CC2 ... -1.72
OCC1OC(n2cnc3cc(Cl)c(Cl)cc32)C(O)C1O (stereo not drawn) ... -1.16
O=C(Nc1ccc(OC(F)(F)Cl)cc1)c1cnc(N2CC[C@@H](O)C2)c(-c2cc[nH]n2)c1 ... -3.77
Cc1ccc(NC(=O)c2ccc3c(c2)OCCO3)cc1NC(=O)c1ccc2nc(OCCN3CCCC3)ccc2c1 ... -1.27
N=C(N)NCCC[C@H](NC(=O)CC1(CC(=O)N2CCN(C3c4ccccc4NC(=O)c4ccccc43)CC2)CCCC1)C(=O)NCCn1c(=O)n(-c2ccccc2)n(-c2ccccc2)c1=O (stereo partly drawn) ... -2.29
Cc1c(-c2c(F)cc(C(N)=O)c3[nH]c4c(c23)CC[C@H](C(C)(C)O)C4)cccc1-n1c(=O)c2cccc(F)c2n(C)c1=O ... -3.49

**Query** # query: ΔTm of entry CN1CCN(C(=O)Cc2ccc(N/C(=C3\C(=O)Nc4cc(Cl)ccc43)c3ccccc3)cc2)CC1
**Result** -2.46

**Query** // query: Cc1cccc(-c2nn3c(c2-c2ccnc4ccc(C(N)=O)cc24)CCC3)n1
**Result** -0.93

**Query** // query: C[C@@H]1COCCN1c1cc(=O)n2c(n1)N(Cc1cncc(Cl)c1)[C@H](C(F)(F)F)CC2
**Result** -3.92

====

# Tested target: Peregrin (Homo sapiens) (UniProt P55201)
# Recorded conditions: Compound concentration 20.0 uM, Protein concentration 2.0 uM, Result type QC Liability
Listing of recorded ΔTm by entry.
Hi! Could you send only the number? It should be in °C, unit omitted.

Some solved entries appear below for comparison.
CN1CCc2cc(Nc3ncc(C(F)(F)F)c(NCc4cc[nH]n4)n3)ccc2C1 ... -1.01
CN(C(=O)c1cnn2cccnc12)c1cc2c(cc1N1CCOCC1)C(=O)N(C[C@@H](F)C(C)(C)O)C2 ... -1.49
COc1ccc(-n2nc(C(F)(F)F)cc2-c2ccc(Cl)cc2)cc1 ... -3.19
CC1(C)Cc2nc(C3CCCC3)c([C@@H](F)c3ccc(C(F)(F)F)cc3)c(C3CCCCC3)c2[C@@H](O)C1 ... -1.29
Cc1cc(C)nc(Nc2ncc(C(=O)NCCc3c(C)[nH]c4ccccc34)cn2)c1 ... -2.14

**Query** # query: ΔTm of entry CC(C)(C[C@H]1CN(S(=O)(=O)c2cccc(C(F)(F)F)c2)c2cc(-c3cc(F)cc(OC(F)F)c3)ccc2O1)C(=O)O
**Result** -3.42

**Query** // query: CC1CNCCc2c1nc1ccnn1c2N1CC(C(=O)N2CCC(C)(C)C2)C1 (stereo not drawn)
**Result** -1.64

**Query** // query: Cn1nccc1-c1ccc(Sc2cccc(C3(C(N)=O)CCOCC3)c2)cc1
**Result** -2.35

**Query** // query: CCCN1C(=O)c2ccc(Cl)cc2Nc2ncccc21
**Result** -3.34

**Query** // query: Cc1ncsc1-c1ccc(CNC(=O)[C@@H]2C[C@@H](O)CN2C(=O)[C@@H](NC(=O)CCCCNC(=O)c2ccc(-c3ccc(N4CCN(C)CC4)c(NC(=O)c4c[nH]c(=O)cc4C(F)(F)F)c3)cc2)C(C)(C)C)cc1
**Result** 1.18

**Query** // query: CC(=O)Nc1nc(C)c(S(=O)(=O)Nc2ccc(C(O)(C(F)(F)F)C(F)(F)F)cc2)s1
**Result** -0.9

**Query** // query: Cc1cnc(Nc2ccc(C(=O)N3CCN(C)CC3)cc2)nc1N[C@@H]1CCC[C@@H]1C(N)=O
**Result** -1.57

**Query** // query: CCN(CC)C(=O)C1CN2CCc3cc(OC)c(OC)cc3C2CC1OC(C)=O (stereo not drawn)
**Result** -2.07

====

# Tested target: UniProtKB P55201
# Sequence (whole entry): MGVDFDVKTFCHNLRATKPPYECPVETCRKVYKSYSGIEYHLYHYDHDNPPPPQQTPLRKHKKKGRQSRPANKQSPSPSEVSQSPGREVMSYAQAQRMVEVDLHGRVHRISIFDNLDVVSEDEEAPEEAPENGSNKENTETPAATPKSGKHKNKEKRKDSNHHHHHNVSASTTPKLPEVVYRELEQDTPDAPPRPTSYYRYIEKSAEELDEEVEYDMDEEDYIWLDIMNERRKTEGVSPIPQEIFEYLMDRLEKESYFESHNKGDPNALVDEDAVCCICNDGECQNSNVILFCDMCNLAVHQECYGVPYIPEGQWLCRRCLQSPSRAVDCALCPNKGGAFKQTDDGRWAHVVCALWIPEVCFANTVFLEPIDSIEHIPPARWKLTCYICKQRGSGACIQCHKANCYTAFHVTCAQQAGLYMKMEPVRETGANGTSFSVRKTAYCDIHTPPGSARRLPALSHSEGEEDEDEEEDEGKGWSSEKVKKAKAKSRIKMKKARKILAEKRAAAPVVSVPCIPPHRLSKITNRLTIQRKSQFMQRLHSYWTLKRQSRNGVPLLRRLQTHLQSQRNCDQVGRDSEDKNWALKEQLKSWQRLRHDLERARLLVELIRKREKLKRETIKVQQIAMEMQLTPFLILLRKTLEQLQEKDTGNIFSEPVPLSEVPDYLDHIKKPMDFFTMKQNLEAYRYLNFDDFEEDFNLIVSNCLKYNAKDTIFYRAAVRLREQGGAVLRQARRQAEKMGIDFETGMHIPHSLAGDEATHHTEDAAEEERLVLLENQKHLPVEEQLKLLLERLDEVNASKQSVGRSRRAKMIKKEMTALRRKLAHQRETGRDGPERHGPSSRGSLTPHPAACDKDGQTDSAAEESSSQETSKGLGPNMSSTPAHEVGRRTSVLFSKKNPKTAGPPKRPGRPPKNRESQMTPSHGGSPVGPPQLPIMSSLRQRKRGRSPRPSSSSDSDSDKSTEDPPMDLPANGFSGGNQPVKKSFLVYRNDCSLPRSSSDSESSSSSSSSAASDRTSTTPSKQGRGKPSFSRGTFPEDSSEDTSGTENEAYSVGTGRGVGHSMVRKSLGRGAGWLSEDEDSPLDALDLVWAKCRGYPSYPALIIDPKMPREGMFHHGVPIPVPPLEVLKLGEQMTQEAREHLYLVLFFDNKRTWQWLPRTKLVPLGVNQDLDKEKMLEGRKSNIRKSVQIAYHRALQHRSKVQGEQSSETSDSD
# Recorded conditions: Compound concentration 20.0 uM, Protein concentration 2.0 uM, Result type QC Liability
Listing of recorded ΔTm by entry.
Hi! Could you send only the number? It should be in °C, unit omitted.

Some solved entries appear below for comparison.
CS(=O)(=O)c1ccc(-c2cnc(N)c(C(=O)Nc3ccccc3)n2)cc1 ... -1.36
CCCCc1c(-c2ccccc2)nc(N)nc1-c1ccc(OCc2ccccc2)c(F)c1F ... -4.97

Next molecule, ΔTm to be filled in.
**Query** # query: ΔTm of entry Nc1ncc2c(n1)-c1c([nH]c3ccc(C4CC4)cc13)CCCC2
**Result** -1.74
